meta.source: patent US12398132B2

Hi there, I'd appreciate the recorded activity for every entry that follows.
# target.of.assay: CDK1B (Homo sapiens, UniProt P06493)
# Sequence (P06493 whole entry): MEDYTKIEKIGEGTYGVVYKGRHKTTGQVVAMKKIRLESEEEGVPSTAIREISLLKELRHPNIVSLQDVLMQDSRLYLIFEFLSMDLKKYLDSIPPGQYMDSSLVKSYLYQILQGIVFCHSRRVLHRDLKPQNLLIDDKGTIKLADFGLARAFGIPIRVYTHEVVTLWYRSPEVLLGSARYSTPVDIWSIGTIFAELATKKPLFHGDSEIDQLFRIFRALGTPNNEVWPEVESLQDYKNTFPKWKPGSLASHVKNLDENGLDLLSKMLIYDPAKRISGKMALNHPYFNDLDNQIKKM
# Sequence (P14635 whole entry partner): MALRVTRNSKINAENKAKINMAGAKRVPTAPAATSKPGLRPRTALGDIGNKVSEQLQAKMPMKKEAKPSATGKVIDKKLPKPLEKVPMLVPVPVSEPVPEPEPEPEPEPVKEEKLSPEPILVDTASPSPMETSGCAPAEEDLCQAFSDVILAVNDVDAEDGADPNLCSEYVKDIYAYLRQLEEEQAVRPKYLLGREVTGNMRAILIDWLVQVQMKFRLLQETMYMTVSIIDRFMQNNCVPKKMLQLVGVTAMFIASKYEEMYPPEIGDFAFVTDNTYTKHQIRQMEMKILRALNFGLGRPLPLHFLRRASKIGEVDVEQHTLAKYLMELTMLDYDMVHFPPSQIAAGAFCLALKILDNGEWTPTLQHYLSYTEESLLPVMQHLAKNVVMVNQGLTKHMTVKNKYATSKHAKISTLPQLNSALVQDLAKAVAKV
# condition.summary: 1 µM
Please state the figure in %; there is no need to write the unit.

Request the reported activity associated with `CC(=O)N1CCN(c2ccc(Nc3ncc(F)c(-c4cnc5ccccn45)n3)nc2)CC1` 100

Thanks! And `CC(=O)N1CCN(c2ccc(Nc3nccc(-c4cnc5ccc(-c6cc7ccccc7[nH]6)cn45)n3)nc2)CC1` ? 96

Thanks! And `CC(=O)N1CCN(c2ccc(Nc3nccc(-c4cnc5ccc(-c6ccsc6)cn45)n3)nc2)CC1` ? 95

Thanks! And `CC(=O)N1CCN(c2ccc(Nc3nccc(-c4cnc5ccc(-c6c[nH]c7ccccc67)cn45)n3)nc2)CC1` ? 98

Thanks! And `CC(=O)N1CCN(c2ccc(Nc3nccc(-c4cnc5ccc(-c6cn(C)c7ccccc67)cn45)n3)nc2)CC1` ? 97

Thanks! And `CC(=O)N1CCN(c2ccc(Nc3ncc(C)c(-c4cnc5ccccn45)n3)nc2)CC1` ? 91

Thanks! And `CC(=O)N1CCN(c2ccc(Nc3nccc(-c4cnc5ccc(-c6coc7ccccc67)cn45)n3)nc2)CC1` ? 98

Thanks! And `CS(=O)(=O)N1CCN(c2ccc(Nc3nccc(-c4cnc5ccc(Br)cn45)n3)nc2)CC1` ? 62

Thanks! And `CC(=O)N1CCN(c2ccc(Nc3nccc(-c4cnc5ccc(Nc6ccccc6)cn45)n3)nc2)CC1` ? 98

Thanks! And `CC(=O)N1CCN(c2ccc(Nc3nccc(-c4cnc5ccc(I)cn45)n3)nc2)CC1` ? 92

Thanks! And `CS(=O)(=O)N1CCN(c2ccc(Nc3nccc(-c4cnc5ccccn45)n3)nc2)CC1` ? 90

Thanks! And `CC(=O)N1CCN(c2ccc(Nc3nccc(-c4cnc5ccc(-c6cccc7[nH]ccc67)cn45)n3)nc2)CC1` ? 96

Thanks! And `CC(=O)N1CCN(c2ccc(Nc3ncc(F)c(-c4cnc5ccc(C(F)(F)F)cn45)n3)nc2)CC1` ? 93

Thanks! And `CN1CCN(c2ccc(Nc3nccc(-c4cnc5ccc(Br)cn45)n3)nc2)CC1` ? 71

Thanks! And `CC(=O)N1CCN(c2ccc(Nc3nccc(-c4cnc5ccc(-c6cc7ccccc7n6C)cn45)n3)nc2)CC1` ? 101

Thanks! And `CC(=O)N1CCN(c2ccc(Nc3ncc(F)c(-c4cnc5ccc(F)cn45)n3)nc2)CC1` ? 96

Thanks! And `CC(=O)N1CCN(c2ccc(Nc3nccc(-c4cnc5ccc(-c6cn(S(=O)(=O)c7ccccc7)c7ncccc67)cn45)n3)nc2)CC1` ? 99

Thanks! And `CC(=O)N1CCN(c2ccc(Nc3nccc(-c4cnc5ccc(-c6csc7ccccc67)cn45)n3)nc2)CC1` ? 81
